Reported standardised AUC values for the following compounds.
System: MES-SA
Experiment: standardised AUC of viability dose-response curve (72 h) (fraction (0-1)); higher = less growth inhibition (more resistant)
Reply with just the number.

Use the examples below as a reference point.
C[C@@H](Oc1cc(-c2cnn(C3CCNCC3)c2)cnc1N)c1c(Cl)ccc(F)c1Cl [CRIZOTINIB] | 0.765
CCN(c1cc(-c2ccc(CN3CCOCC3)cc2)cc(C(=O)NCc2c(C)cc(C)[nH]c2=O)c1C)C1CCOCC1 [TAZEMETOSTAT] | 0.976

Fill in the recorded standardised AUC for this compound, with MES-SA as test system: Cc1c(F)cc(C(=O)NC2CC2)cc1-c1ccc(C(=O)NCC(C)(C)C)cn1 [LOSMAPIMOD] 0.944

Fill in the recorded standardised AUC for this compound, with MES-SA as test system: C=CC(=O)Nc1cc(Nc2nccc(-c3cn(C)c4ccccc34)n2)c(OC)cc1N(C)CCN(C)C [OSIMERTINIB] 0.893

Fill in the recorded standardised AUC for this compound, with MES-SA as test system: CCCCCCCCCCCCCCCCCCOP(=O)([O-])OC1CC[N+](C)(C)CC1 [PERIFOSINE] 0.954

Fill in the recorded standardised AUC for this compound, with MES-SA as test system: CN(C)C[C@@H]1CCn2cc(c3ccccc32)C2=C(C(=O)NC2=O)c2cn(c3ccccc23)CCO1 [RUBOXISTAURIN] 0.951

Fill in the recorded standardised AUC for this compound, with MES-SA as test system: Cc1ccc(NC(=O)c2ccc(CN3CCN(C)CC3)cc2)cc1Nc1nccc(-c2cccnc2)n1 [IMATINIB] 0.973

Fill in the recorded standardised AUC for this compound, with MES-SA as test system: COc1cc2ncnc(Nc3ccc(F)c(Cl)c3)c2cc1NC(=O)/C=C/CN1CCCCC1 [DACOMITINIB] 0.858

* * *

System: HT1080
Assay: relative viability vs DMSO control (72 h) (fraction); higher = more viable cells
Conditions: 0.3704 µM
outcome-measure: relative viability
Reply with just the number.

Use the examples below as a reference point.
COc1cc2ncnc(Nc3cccc(Cl)c3F)c2cc1OC(=O)N1CCN(C)C[C@H]1C | 1.02
C[C@@H]1COC(Nc2ccc3ncnc(Nc4ccc(OCc5nccs5)c(Cl)c4)c3c2)=N1 | 1.01
CN1CCN(CCOc2cc(OC3CCOCC3)c3c(Nc4c(Cl)ccc5c4OCO5)ncnc3c2)CC1 | 1.04

So what does the record say about relative viability for COc1cc2nccc(Oc3ccc(NC(=O)NC4CC4)c(Cl)c3)c2cc1C(N)=O ? 1.07

So what does the record say about relative viability for CN(C)C[C@@H]1CCn2cc(c3ccccc32)C2=C(C(=O)NC2=O)c2cn(c3ccccc23)CCO1 ? 1.03

So what does the record say about relative viability for COc1cc(Nc2c(C#N)cnc3cc(OCCCN4CCN(C)CC4)c(OC)cc23)c(Cl)cc1Cl ? 1.14

So what does the record say about relative viability for N#Cc1ccnc(N2C(=O)CC[C@H]2C(=O)N(c2cncc(F)c2)[C@H](C(=O)NC2CC(F)(F)C2)c2ccccc2Cl)c1 ? 1.11

So what does the record say about relative viability for COc1cc2ncnc(Nc3ccc(F)c(Cl)c3)c2cc1NC(=O)/C=C/CN1CCCCC1 ? 1.13

So what does the record say about relative viability for C#Cc1cccc(Nc2ncnc3cc(OCCOC)c(OCCOC)cc23)c1 ? 1.1

So what does the record say about relative viability for Cc1cc(Nc2ncc(Cl)c(Nc3ccccc3S(=O)(=O)C(C)C)n2)c(OC(C)C)cc1C1CCNCC1 ? 1.03

So what does the record say about relative viability for C[C@@H](Oc1cc(-c2cnn(C3CCNCC3)c2)cnc1N)c1c(Cl)ccc(F)c1Cl ? 1.07
